# maps each entry to its koff
Target: T1, human CI-M6PR domain1-3His6 (human, UniProt P11717 41-467)
T1 construct: Recombinant, made in HEK293 cells; Biotinylated with NHS-PEG4-biotin for BLI; unlabelled in SEC-MALLS and crystallisation; also called CI-M6PR hDom1-3His6; hDom1-3His6
Experiment: BLI, association pH 7.4, dissociation at pH 5.5, mean of local fits
Experimental: FIGS. 9A-9E. […] BLI was performed on an Octet Red96 (FortéBio) instrument in kinetics buffer (0.2 M Na₂HPO₄, 0.1 M Na⁺citrate, 0.01% bovine serum albumin, 0.002% Tween-20). Biotinylated human domain₁₋₃His₆ was immobilized on Streptavidin SA biosensors (Sartorius) to a signal of 0.6 nm. […] The degree of association and dissociation was measured in δ nm over time(s). FIGS. 10A-10E. […] The degree of association and dissociation was measured in δ nm over time(s).
Give a bare numeral; the unit s⁻¹ is implied.

INSERT INTO results (binder, measured_quantity, observed_measurement) VALUES
  ('humanized variant VHH8h1 (VHH, Made in E. coli, IMAC purified; tag not specified) VHH: EVQLVESGGGLVQPGGSLRLSCAASGRTFNTYNWGWFRQAPGKEREFVAAIRWSSSKTSYADSVKGRFTISRDNSKNTVYLQMNSLRPEDTAVYYCAASIVDFTTNPSHFGSWGQGTLVTVSS', 'koff', 0.0043),
  ('anti-CI-M6PR VHH7 (VHH, Purified by IMAC, so tagged; Labelled with Alexa Fluor 488 (NHS ester) in the imaging experiments) VHH: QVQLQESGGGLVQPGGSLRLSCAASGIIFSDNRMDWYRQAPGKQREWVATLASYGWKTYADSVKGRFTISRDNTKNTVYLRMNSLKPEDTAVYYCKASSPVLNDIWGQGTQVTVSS', 'koff', 0.013),
  ('humanized variant VHH8h3 (VHH, Made in E. coli, IMAC purified; tag not specified) VHH: DVQLVESGGGLVQAGGSLRLSCAASGRTFNTYNWGWFRQAPGKEREFVAAIRWSSSKTSYADSVKGRFTISRDNSKNTVYLQMNSLRPEDTAVYYCAASIVDFTTNPSHFGSWGQGTLVTVSS', 'koff', 0.0041);

Exam item: Param item = humanized variant VHH8h2 (VHH, Made in E. coli, IMAC purified; tag not specified) VHH: DVQLVESGGGLVQPGGSLRLSCAASGRTFNTYNWGWFRQAPGKEREFVAAIRWSSSKTSYADSVKGRFTISRDNSKNTVYLQMNSLRPEDTAVYYCAASIVDFTTNPSHFGSWGQGTLVTVSS ; retrieve measured koff.
Marked response: 0.0044

// data source = patent US20240327525A1
